experiment: Displacement of [3H]2BFI from I2 imidazoline binding site in rat brain membrane; format: cell membranes
property: Ki (nM)

Here are 6 compounds together with their reported answers.
Fill blank: measured Ki of the compound CCCN1CCN=C1c1cc2cc(O)c(O)cc2o1 is ____.
28000

Which Ki is listed for Oc1cc2cc(C3=NCCN3Cc3ccccc3)oc2cc1O ?
10400

So what's the measured Ki for this one? Oc1ccc2oc(C3=NCCN3Cc3ccccc3)cc2c1
1100

Entry Oc1cc2cc(C3=NCCN3)oc2cc1O has what Ki?
5690

Please look up its Ki: Oc1ccc2cc(C3=NCCN3)oc2c1
76

Consider the compound shown here: Oc1ccc2cc(C3=NCCN3Cc3ccccc3)oc2c1 What is its recorded Ki?
5780

(I) c1ccc2oc(C3=NCCN3)cc2c1
(II) Oc1ccc2oc(C3=NCCN3)cc2c1
(III) CCCN1CCN=C1c1cc2cc(O)ccc2o1
(IV) CCCN1CCN=C1c1cc2ccc(O)cc2o1
Order each entry by recorded Ki, climbing from the minimum. Give your ranking as a list of the labels in the requested order.
I, II, III, IV

----------
test: Displacement of [3H]YM-09-151-2 from D2-like receptor in pig striatal membrane; assay type: cell membranes, Sus scrofa, Striatum
pKi: −log10 of the molar value.
property: pKi

What does the data say about its pKi? Entry: Oc1ccc2cc(C3=NCCN3)oc2c1
4.84

Field request: pKi | item: Oc1ccc2oc(C3=NCCN3Cc3ccccc3)cc2c1
5.30

Return reported pKi; argument: Oc1cc2cc(C3=NCCN3Cc3ccccc3)oc2cc1O
4.73

Please look up its pKi: c1ccc2oc(C3=NCCN3)cc2c1
4.33

Look up pKi for this compound: NCCc1ccc(O)c(O)c1
5.41

Would you mind telling me what pKi value was observed for CCCN1CCN=C1c1cc2ccc(O)cc2o1 ?
4.86

(P) CCCN1CCN=C1c1cc2cc(O)ccc2o1
(Q) Oc1ccc2cc(C3=NCCN3Cc3ccccc3)oc2c1
Of P and Q , which shows the smaller pKi value? // return label of chosen record
P

----------
assay: Agonist activity at D2-like receptor in pig striatal membrane assessed as [35S]GTPgammaS binding; type: functional, cell membranes, Sus scrofa, Striatum
property: EC50 (µM)

Check out these entries, answers already filled in.
So what does the record say about EC50 for Oc1ccc2cc(C3=NCCN3)oc2c1 ?
5.7

Given Oc1ccc2cc(C3=NCCN3Cc3ccccc3)oc2c1 , state its recorded EC50.
5.8

I am curious: what EC50 value has been reported for c1ccc2oc(C3=NCCN3)cc2c1 ?
37.7

Record request: EC50 value, item CCCN1CCN=C1c1cc2ccc(O)cc2o1
13.3

// EC50 lookup, key: Oc1ccc2oc(C3=NCCN3Cc3ccccc3)cc2c1
6.3

(I) NCCc1ccc(O)c(O)c1 [DOPAMINE]
(II) Oc1cc2cc(C3=NCCN3Cc3ccccc3)oc2cc1O
Looking only at measured EC50, which entry is lower, I or II ? In your reply, give the label of the chosen option.
I

----------
test: Displacement of [3H]SCH23390 from dopamine D1-like receptor pig striatal membrane
property: Kd (nM)
Number in nM, nothing else.

Query (molecule): NCCc1ccc(O)c(O)c1 [DOPAMINE] ; field requested: Kd
1.33

----------
The compounds listed here are annotated with their Ki.
experiment: Displacement of [3H]YM-09-151-2 from D2-like receptor in pig striatal membrane; type: cell membranes, Sus scrofa, Striatum

Observe how each entry below is paired with its result.
Suppose we examine the compound CN1CCN=C1c1cc2cc(O)ccc2o1 ; what Ki value has been reported?
> 100 µM

For Oc1ccc2oc(C3=NCCN3)cc2c1 , what is its reported Ki?
> 100 µM

State the recorded Ki for this entry: CCN1CCN=C1c1cc2cc(O)ccc2o1
> 100 µM

Need Ki of Oc1cc2cc(C3=NCCN3)oc2cc1O , thanks.
> 100 µM

Next up:
Looking for the measured Ki of CCCN1CCN=C1c1cc2cc(O)c(O)cc2o1 , can you help?
> 100 µM

# credit: ChEMBL document CHEMBL1250524
